src = patent US20260258031A1

- EXPERIMENTAL_DETAILS: Solubility in solvents, dynamic method
- Assay type: physicochemical
- TEST_CONDITIONS: organic solvent or mixture, thermodynamic from solid; IPA/heptane (1/3), 25° C., dynamic method

MOLECULE | solubility at 15 min
CCCN1CC(Oc2ccc([C@@H]3c4[nH]c5ccccc5c4C[C@@H](C)N3CC(C)(C)F)cc2)C1.O=C(O)/C=C/C(=O)O [Compound 1 Fumarate Form E] | < 1000 µg/mL

----------
- EXPERIMENTAL_DETAILS: Kinetic solubility of Fumarate Form A Ethyl Acetate Solvate, solvent aliquot addition
- Type: physicochemical
- TEST_CONDITIONS: organic solvent or mixture, thermodynamic from solid; ACN, ambient temperature; re-precipitated after first aliquot
ENDPOINT_LABEL: solubility

MOLECULAR_STRING | ENDPOINT_LABEL | VAL
CCCN1CC(Oc2ccc([C@@H]3c4[nH]c5ccccc5c4C[C@@H](C)N3CC(C)(C)F)cc2)C1.O=C(O)/C=C/C(=O)O | solubility | < 2 mg/mL

----------
- EXPERIMENTAL_DETAILS: Solubility in solvents, dynamic method
- Assay type: physicochemical
- TEST_CONDITIONS: organic solvent or mixture, thermodynamic from solid; IPA/heptane (5/3), 25° C., dynamic method
ENDPOINT_LABEL: solubility at 15 min

COMPOUND | ENDPOINT_LABEL | VAL
CCCN1CC(Oc2ccc([C@@H]3c4[nH]c5ccccc5c4C[C@@H](C)N3CC(C)(C)F)cc2)C1.O=C(O)/C=C/C(=O)O [Compound 1 Fumarate Form E] | solubility at 15 min | ~3570 µg/mL

----------
- EXPERIMENTAL_DETAILS: Kinetic solubility of Fumarate Form A Ethyl Acetate Solvate, solvent aliquot addition
- Format: physicochemical
- TEST_CONDITIONS: organic solvent or mixture, thermodynamic from solid; 2-MeTHF, ambient temperature
ENDPOINT_LABEL: solubility

MOLECULAR_STRING | VAL
CCCN1CC(Oc2ccc([C@@H]3c4[nH]c5ccccc5c4C[C@@H](C)N3CC(C)(C)F)cc2)C1.O=C(O)/C=C/C(=O)O | 32 mg/mL

----------
- EXPERIMENTAL_DETAILS: Solubility in solvents, dynamic method
- Assay type: physicochemical
- TEST_CONDITIONS: organic solvent or mixture, thermodynamic from solid; IPA, 25° C., dynamic method
ENDPOINT_LABEL: solubility at 15 min

COMPOUND | VAL
CCCN1CC(Oc2ccc([C@@H]3c4[nH]c5ccccc5c4C[C@@H](C)N3CC(C)(C)F)cc2)C1.O=C(O)/C=C/C(=O)O [Compound 1 Fumarate Form E] | ~8460 µg/mL

----------
- EXPERIMENTAL_DETAILS: Solubility in solvents, dynamic method
- Format: physicochemical
- TEST_CONDITIONS: organic solvent or mixture, thermodynamic from solid; IPA/heptane (5/1), 25° C., dynamic method
- Description: […] Solubility was measured by the dynamic method and gravimetric method. Dynamic method: Under the condition of a certain amount of solute and certain temperature, solvent was gradually added with stirring for 15 min to reach equilibrium. When solute is completely dissolved, amount of solvent was recorded and the solubility calculated.

COMPOUND | UNIT_TEXT | solubility at 15 min
CCCN1CC(Oc2ccc([C@@H]3c4[nH]c5ccccc5c4C[C@@H](C)N3CC(C)(C)F)cc2)C1.O=C(O)/C=C/C(=O)O [Compound 1 Fumarate Form E] | µg/mL | 5890
